Consider the following compounds; for each one, report its pIC50.
Target: MMP-9 (Homo sapiens)
Sequence (P14780 94-707): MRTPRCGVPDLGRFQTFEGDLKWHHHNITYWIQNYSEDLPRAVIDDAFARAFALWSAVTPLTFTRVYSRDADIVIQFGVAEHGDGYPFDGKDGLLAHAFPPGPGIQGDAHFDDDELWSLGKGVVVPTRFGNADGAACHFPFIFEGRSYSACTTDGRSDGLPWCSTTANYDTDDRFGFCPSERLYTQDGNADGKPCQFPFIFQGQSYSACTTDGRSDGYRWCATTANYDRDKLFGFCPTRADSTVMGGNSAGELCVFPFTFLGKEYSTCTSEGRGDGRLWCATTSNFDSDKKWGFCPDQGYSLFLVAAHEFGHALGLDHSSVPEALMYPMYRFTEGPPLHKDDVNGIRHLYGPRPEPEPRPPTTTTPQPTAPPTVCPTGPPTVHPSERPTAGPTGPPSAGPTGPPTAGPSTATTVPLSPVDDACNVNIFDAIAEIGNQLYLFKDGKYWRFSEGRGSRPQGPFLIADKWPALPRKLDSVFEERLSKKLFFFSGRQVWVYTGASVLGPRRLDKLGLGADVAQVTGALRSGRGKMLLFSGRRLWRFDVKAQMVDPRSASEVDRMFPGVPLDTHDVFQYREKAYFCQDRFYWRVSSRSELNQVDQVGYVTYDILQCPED
Test: MMP-9 inhibition (thiopeptide or fluorescent peptide substrate)
Assay type: biochemical
Conditions: read-out: MMP-9 IC50
The value called pIC50 is obtained by taking minus log10 of the concentration in mol/L.

Report pIC50 for CC#CCOc1ccc(S(=O)(=O)N(CC2CC2)C(C(=O)NO)C(C)C)cc1 (centres unmarked)
6.40

Report pIC50 for CC#CCOc1ccc(S(=O)(=O)N(CCCN2CCOCC2)C(C(=O)NO)C(C)C)cc1 (centres unmarked)
7.03

Report pIC50 for CC#CCOc1ccc(S(=O)(=O)NC(C(=O)NO)c2ccc(OCCN(C)C(=O)OC(C)(C)C)cc2)cc1 (centres unmarked)
6.07

Report pIC50 for CC#CCOc1ccc(S(=O)(=O)NCC(=O)NO)cc1
6.12

Report pIC50 for CC#CCOc1ccc(S(=O)(=O)NC(C(=O)NO)C(C)(C)SCCC)cc1 (centres unmarked)
6.00
